These measurements were taken from the supplement of paper PMC10981050.

Readings of cell viability for the listed compounds
Tested on: MOLM14
Test: cell viability relative to vehicle control; higher = less cytotoxic;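 note: after 48 h exposure read by CellTiter-Glo luminescence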
Settings: 10 µM; SRSF2 genotype: SRSF2 wt/wt
Counter-ions that a name gives are not always drawn.
metric: cell viability (%)

[[record]]
compound = "O=C(Nc1ccc(Oc2ccc(Cl)cc2)c(Cl)c1)c1cc(I)cc(I)c1O [Rafoxanide]"
numericresult = 108

[[record]]
compound = "CC(C)(C)NC(=O)[C@H]1CC[C@H]2[C@@H]3CC[C@H]4NC(=O)C=C[C@]4(C)[C@H]3CC[C@]12C [Finasteride]"
numericresult = 102

[[record]]
compound = "CCOC(=O)c1c(C)n(C)c2ccc(O)cc12 [Mecarbinate]"
numericresult = 112

[[record]]
compound = "CCN[C@H]1CN(CCCOC)S(=O)(=O)c2sc(S(N)(=O)=O)cc21 [Brinzolamide]"
numericresult = 86.5

[[record]]
compound = "CCCCC(C=O)NC(=O)C(CC(C)C)NC(=O)C(CC(C)C)NC(C)=O (stereo unspecified)"
numericresult = 0.15

[[record]]
compound = "CCCCC[C@H](O)CC(=O)CCc1ccc(O)c(OC)c1"
numericresult = 95.5

[[record]]
compound = "COc1c(O[C@@H]2O[C@H](CO)[C@@H](O)[C@H](O)[C@H]2O)cc2occ(-c3ccc(O)cc3)c(=O)c2c1O"
numericresult = 96.1

[[record]]
compound = "Clc1ccc(NN=C(c2ccccc2)c2ccccn2)nc1"
numericresult = 0.71

[[record]]
compound = "Cc1nc2cccc(N)c2c(=O)n1C1CCC(=O)NC1=O (stereo unspecified) [Avadomide(CC-122)]"
numericresult = 98.2

[[record]]
compound = "O=S(=O)(O)CCS"
numericresult = 100

[[record]]
compound = "O=NO [Sodium Nitrite]"
numericresult = 101

[[record]]
compound = "C=CC(=O)Nc1cccc(Nc2nc(Nc3ccc(Oc4ccnc(C(=O)NC)c4)cc3)ncc2F)c1"
numericresult = 53.4

[[record]]
compound = "Nc1ncnc2c1ncn2[C@@H]1O[C@H](CO)[C@@H](O)[C@@H]1O [Vidarabine monohydrate]"
numericresult = 103

[[record]]
compound = "CCN(CC)CCOC(=O)c1ccc(N)cc1Cl [Chloroprocaine HCl]"
numericresult = 99.3

[[record]]
compound = "Cc1ccc(S(=O)(=O)c2ccc([N+](=O)[O-])o2)cc1"
numericresult = 0.2

[[record]]
compound = "C/C(=N\\NC(=O)c1cccc(S(=O)(=O)N2CCOCC2)c1)c1cc(Cl)ccc1O"
numericresult = 1.96

[[record]]
compound = "CC1(C)C[C@@H]1C(=O)N/C(=C\\CCCCSC[C@H](N)C(=O)O)C(=O)O"
numericresult = 103

[[record]]
compound = "CC(=O)Oc1cc(C(F)(F)F)ccc1C(=O)O"
numericresult = 101

[[record]]
compound = "Cc1nc(C#Cc2ccnc(Cl)c2)c(C)n1-c1ccc(OC(F)(F)F)cc1"
numericresult = 80.2

[[record]]
compound = "COC(=O)C1=CO[C@@H](O[C@@H]2O[C@H](CO)[C@@H](O)[C@H](O)[C@H]2O)[C@H]2[C@@H]1C(=O)C[C@@H]2C"
numericresult = 103

[[record]]
compound = "COc1cc(C=O)ccc1OC(C)=O"
numericresult = 101

[[record]]
compound = "Cc1ccc2nc(NC(=O)CSc3nc4c(c(=O)n3-c3ccccc3)SCC4)sc2c1"
numericresult = 93.3

[[record]]
compound = "CC(C)(Sc1cc(C(C)(C)C)c(O)c(C(C)(C)C)c1)Sc1cc(C(C)(C)C)c(O)c(C(C)(C)C)c1"
numericresult = 105

[[record]]
compound = "CC(=O)O[C@H](CC=C(C)C)C1=CC(=O)c2c(O)ccc(O)c2C1=O"
numericresult = 0.53

[[record]]
compound = "CC(N)C12CC3CC(CC(C3)C1)C2 (stereo unspecified)"
numericresult = 102

[[record]]
compound = "Cc1cc(Cn2cnc3c2CC(C(=O)O)N(C(=O)C(c2ccccc2)c2ccccc2)C3)ccc1N(C)C (stereo unspecified)"
numericresult = 97.2

[[record]]
compound = "O=C1c2c(O)cc(O)cc2OC(c2ccc(O)c(O)c2)C1O (stereo unspecified) [Taxifolin (Dihydroquercetin)]"
numericresult = 101

[[record]]
compound = "COc1cc2c(cc1OC)-c1cc3ccc4c(c3c[n+]1CC2)OCO4 [Epiberberine]"
numericresult = 86.9

[[record]]
compound = "CCC[C@H](NC(=O)/C(C#N)=C/c1cccc(Br)n1)c1ccccc1 [Degrasyn (WP1130)]"
numericresult = 0.25

[[record]]
compound = "CC12CCC(CC1=O)C2(C)C (stereo not drawn) [(+)-Camphor]"
numericresult = 99.8

[[record]]
compound = "O=C1NC(=O)C(c2cnc3ccccn23)=C1c1cn2c3c(cc(F)cc13)CN(C(=O)N1CCCCC1)CC2"
numericresult = 79.5

[[record]]
compound = "N[C@@H](CSCCB(O)O)C(=O)O [BEC Hydrochloride]"
numericresult = 104

[[record]]
compound = "O=C(O)COCCN1CCN([C@H](c2ccccc2)c2ccc(Cl)cc2)CC1 [Levocetirizine Dihydrochloride]"
numericresult = 99.3

[[record]]
compound = "COC(=O)C1=C(C)NC(C)=C(C(=O)OC)C1c1ccccc1[N+](=O)[O-]"
numericresult = 49.5

[[record]]
compound = "COc1ccc2[nH]cc(CCNC(C)=O)c2c1"
numericresult = 105

[[record]]
compound = "CCC[C@@H]1C[C@@H](C(=O)N[C@@H]([C@H]2O[C@H](SC)[C@H](O)[C@@H](O)[C@H]2O)[C@H](C)Cl)N(C)C1 [Clindamycin HCl]"
numericresult = 108


====

Tested on: OCI-AML2
Test: cell viability relative to vehicle control; higher = less cytotoxic
Details: 10 µM; SRSF2 genotype: wt/wt
Counter-ions that a name gives are not always drawn.
metric: cell viability

[[record]]
compound = "CNC(=O)c1c(C)oc2cc(Oc3ncnc4cc(OC)c(OC)cc34)ccc12"
targetofassay = "OCI-AML2"
metric = "cell viability"
result = "85.4%"

[[record]]
compound = "COC(=O)c1cc(O)c(O)c(O)c1 [Methyl gallate]"
targetofassay = "OCI-AML2"
metric = "cell viability"
result = "110%"

[[record]]
compound = "O=S(=O)(O)NC1CCCCC1"
targetofassay = "OCI-AML2"
metric = "cell viability"
result = "110%"

[[record]]
compound = "O=C(Nc1ccccc1-c1cn2c(CN3CC[C@@H](O)C3)csc2n1)c1ccc2ccccc2c1"
targetofassay = "OCI-AML2"
metric = "cell viability"
result = "64.4%"

[[record]]
compound = "CCCCC(C)(O)C/C=C/[C@H]1[C@H](O)CC(=O)[C@@H]1CCCCCCC(=O)OC (mixture of isomers)"
targetofassay = "OCI-AML2"
metric = "cell viability"
result = "84%"

[[record]]
compound = "Cc1cccc(Nc2nc(-c3ccncc3)cs2)c1"
targetofassay = "OCI-AML2"
metric = "cell viability"
result = "66.9%"

[[record]]
compound = "CC(C)NCC(O)COc1ccc(CCOCC2CC2)cc1 (centres undefined) [Betaxolol hydrochloride (Betoptic)]"
targetofassay = "OCI-AML2"
metric = "cell viability"
result = "99.6%"

[[record]]
compound = "Cc1noc(NS(=O)(=O)c2ccc(N)cc2)c1C"
targetofassay = "OCI-AML2"
metric = "cell viability"
result = "104%"

[[record]]
compound = "Nc1ccc(C(=O)O)c(O)c1 [Sodium 4-Aminosalicylate]"
targetofassay = "OCI-AML2"
metric = "cell viability"
result = "97.5%"


====

Test system: MARIMO
Test: cell viability relative to vehicle control; higher = less cytotoxic
Conditions: 10 µM; SRSF2 genotype: SRSF2 wt/wt
Structures can show the parent of a compound that is named as a salt.
Each record here notes measured cell viability.
metric: cell viability (%)

[[record]]
compound = "CC(=CCNc1ncnc2nc[nH]c12)CO [Trans-Zeatin]"
targetofassay = "MARIMO"
numericresult = 108

[[record]]
compound = "CCN(CC)CCOC(=O)c1ccc(N)cc1Cl [Chloroprocaine HCl]"
targetofassay = "MARIMO"
numericresult = 115

[[record]]
compound = "O=C(CCCCCN1C(=O)c2cccc3cccc(c23)C1=O)NO"
targetofassay = "MARIMO"
numericresult = 4.11

[[record]]
compound = "O=C1C(=O)N(Cc2ccc(Cl)c(Cl)c2)c2ccccc21"
targetofassay = "MARIMO"
numericresult = 33.1

[[record]]
compound = "CCOC(=O)[C@H](CCc1ccccc1)N[C@@H](C)C(=O)N1[C@H](C(=O)O)C[C@@H]2CCC[C@@H]21"
targetofassay = "MARIMO"
numericresult = 92.3


====

Test system: MOLM14
Test: cell viability relative to vehicle control; higher = less cytotoxic
Conditions: 10 µM; SRSF2 genotype: SRSF2 P95H/wt
metric: cell viability (%)

[[record]]
molecule = "CC1(C)CC(=O)c2c(C(F)(F)F)nn(-c3ccc(C(N)=O)c(N[C@H]4CC[C@H](O)CC4)c3)c2C1"
metric = "cell viability"
unitdescriptor = "%"
numericresult = 3.24

[[record]]
molecule = "O=C(O)/C=C/c1ccc(O)cc1"
metric = "cell viability"
unitdescriptor = "%"
numericresult = 107

[[record]]
molecule = "CS(=O)(=O)c1cccc(C[C@H](NC(=O)c2c(Cl)cc3c(c2Cl)CCN(C(=O)c2ccc4ccoc4c2)C3)C(=O)O)c1"
metric = "cell viability"
unitdescriptor = "%"
numericresult = 93.7

[[record]]
molecule = "NC(=S)c1ccncc1 [Thioisonicotinamide]"
metric = "cell viability"
unitdescriptor = "%"
numericresult = 103

[[record]]
molecule = "COc1c(N2CCNC(C)C2)c(F)cc2c(=O)c(C(=O)O)cn(C3CC3)c12 (centres undefined)"
metric = "cell viability"
unitdescriptor = "%"
numericresult = 102

[[record]]
molecule = "COC(=O)[C@]12CCC(C)(C)C[C@H]1[C@H]1C(=O)C=C3[C@@]4(C)C=C(C#N)C(=O)C(C)(C)[C@@H]4CC[C@@]3(C)[C@]1(C)CC2"
metric = "cell viability"
unitdescriptor = "%"
numericresult = 0.15

[[record]]
molecule = "O=[N+]([O-])c1ccc(Nc2nc(N3CCOCC3)nc(N3CCOCC3)n2)cc1"
metric = "cell viability"
unitdescriptor = "%"
numericresult = 112

[[record]]
molecule = "S=C(NCc1ccc2c(c1)OCO2)N1CCN(c2ncnc3c2oc2ccccc23)CC1"
metric = "cell viability"
unitdescriptor = "%"
numericresult = 68.2

[[record]]
molecule = "CCCNC[C@]1(O)[C@H](C)O[C@@H](O[C@H]2[C@H](C)[C@@H](O[C@@H]3O[C@H](C)C[C@H](N(C)C)[C@H]3O)[C@](C)(O)C[C@@H](C)CN[C@H](C)[C@@H](O)[C@](C)(O)[C@@H](CC)OC(=O)[C@@H]2C)C[C@@]1(C)OC"
metric = "cell viability"
unitdescriptor = "%"
numericresult = 100

[[record]]
molecule = "CCCCC(CC)COC(=O)C(C#N)=C(c1ccccc1)c1ccccc1 (centres undefined)"
metric = "cell viability"
unitdescriptor = "%"
numericresult = 95.1

[[record]]
molecule = "CC[C@H]1OC(=O)[C@H](C)[C@@H](O[C@H]2C[C@@](C)(OC)[C@@H](O)[C@H](C)O2)[C@H](C)[C@@H](O[C@@H]2O[C@H](C)C[C@H](N(C)C)[C@H]2O)[C@](C)(O)C[C@@H](C)C(=O)[C@H](C)[C@H]2OC(=O)O[C@@]21C [Erythromycin Cyclocarbonate]"
metric = "cell viability"
unitdescriptor = "%"
numericresult = 104

[[record]]
molecule = "NC(=O)Nc1cc(-c2cccc(F)c2)sc1C(=O)N[C@H]1CCCNC1"
metric = "cell viability"
unitdescriptor = "%"
numericresult = 1.02

[[record]]
molecule = "CCCCCC1C(=O)CCC1CC(=O)OCCC (centres undefined) [Prohydrojasmon]"
metric = "cell viability"
unitdescriptor = "%"
numericresult = 95.8

[[record]]
molecule = "COc1cccc(-c2c(C)n(Cc3c(F)cccc3C(F)(F)F)c(=O)n(C[C@H](NCCCC(=O)O)c3ccccc3)c2=O)c1F [Elagolix Sodium]"
metric = "cell viability"
unitdescriptor = "%"
numericresult = 99

